experimental-readout: melting point

molecule: O=C1OCCN1c1cccc(CCBr)c1
result: 73 to 75 °C
//
molecule: COC(=O)C(=O)c1ccc(OCc2ccc3ccccc3n2)cc1
result: 109 to 110 °C
//
molecule: CC(C)n1c(-c2ccccc2)nc(-c2ccc(F)cc2)c1CO
result: 190 to 193 °C
//
molecule: COc1ccc2nc3c([N+](=O)[O-])ccc(Cl)c3c(Cl)c2c1
result: 243 to 246 °C
//
molecule: CCCCc1ncc(/C=C(\Cc2cccs2)C(=O)O)n1Cc1ccc(C(=O)O)c(C(=O)O)c1
result: 204 to 205 °C
//
molecule: O=c1c2ccc(O)cc2oc2c1oc1c3ccccc3ccc21
result: > 300 °C
//
molecule: CCCOc1ccc(S(=O)(=O)N2CCN(CCOC(=O)c3ccccc3)CC2)cc1-c1nc2c(CCC)cn(CC)c2c(=O)[nH]1
result: 78 to 79 °C
//
molecule: O=C(CC1CCCCC1)Nc1n[nH]c(-c2ccc(F)cc2)c1-c1ccncc1
result: 296 to 300 °C
//
molecule: Cc1cc(CC(C)(C)NCC(O)c2cc(OCc3ccccc3)cc3c2OCC(=O)N3)ccc1F (centres undefined)
result: 228 to 230 °C
//
molecule: CCC(=NOC)c1ccc(=O)[nH]c1CC
result: 120 to 125 °C
//
molecule: O[C@@H](CNCCOc1ccc2oc(-c3ccon3)cc2c1)c1cccc(C(F)(F)F)c1
result: 113 to 114 °C
//
molecule: CC(C)C(=O)n1cc(C(=O)C2CSC(c3cccnc3)N2)c2ccccc21 (centres undefined)
result: 78 to 80 °C
//
molecule: OC(CCc1ccccc1)Cn1ccnc1 (centres undefined)
result: 106 to 107 °C
//
molecule: O=C1NC(=O)[C@@]2(C[C@@H](C(=O)NO)Oc3ccc(F)cc32)N1
result: 178 °C
//
molecule: O=C1c2ccc([N+](=O)[O-])cc2C(=O)N1C1CCN(C2CCCCC2)CC1
result: 265 to 270 °C
//
molecule: N#Cc1ccc(N2CCN(Cc3cn4cc(Cl)ccc4n3)CC2)c(Cl)c1
result: 137 to 138 °C
//
molecule: O=C(OCc1ccccc1)c1ccc(O)c(CO)c1
result: 109 to 110 °C
//
molecule: C[C@@H]1CCCN1CCc1ccc2cc(-c3ccc(C#N)cc3)ccc2n1
result: 164 °C
//
molecule: O=C1O[C@@H](Cn2ccnn2)CN1c1ccc(-c2ccc(CN3CCOCC3)nc2)c(F)c1
result: 175 °C
//
molecule: CSc1nc(Br)cc(Oc2cccc(C(F)(F)F)c2)n1
result: 70 to 71 °C
//
molecule: O=C(NN=Cc1ccc(Cl)cc1)c1[nH]c2ccccc2c1C(=O)Nc1ccccc1
result: > 260 °C
//
molecule: Nc1cccc(NC(=O)NC2N=C(c3ccccc3F)c3ccccc3N(CC(=O)N3CC4CCC(CC4)C3)C2=O)c1 (racemic)
result: > 250 °C
//
molecule: Cc1cc(C2N(c3ccccc3)CCN2c2ccccc2)c(O)cc1N(C)C
result: 207 to 212 °C
//
molecule: NC(=O)[C@H]1CN(c2ccc(C3CCOCC3)c(F)c2)C(=O)O1
result: 153 to 156 °C

----------
Reported melting point values follow for various compounds

chemical-structure: Cn1ncc(C(=O)N2CCC2)c1C(=O)Nc1ccn2nc(-c3ccccc3)nc2c1
melting point: 243 to 245 °C

chemical-structure: O=C(NS(=O)(=O)c1ccccc1)c1ccc2nc(C3CC3)n(Cc3ccc(-c4ccccc4)cc3)c2c1
melting point: 221 to 225 °C

chemical-structure: O=C(O)CCCCCCCCCC#CC#Cc1ccco1
melting point: 62.6 to 63.5 °C

chemical-structure: COc1cccc(Oc2ncccc2C#N)c1
melting point: 66 to 68 °C

chemical-structure: CCOc1nn(Cc2cccc(OCCn3ncc4ccccc4c3=O)c2)cc1CCC(=O)O
melting point: 146 to 147 °C

----------
Reported melting point values follow for various molecules

chemical-structure: CC(C)CC(=O)Nc1cncc(-c2ccnc3c(C(=O)c4cccs4)cnn23)c1
melting point: 217 to 219 °C
--
chemical-structure: O=C1NCCCC12c1ccccc1-c1ccccc12
melting point: > 250 °C
--
chemical-structure: COc1cc(CSC2=NCCS2)nc(N)n1
melting point: 122 to 124 °C

----------
compound: CNS(=O)(=O)Cc1ccc2[nH]ccc2c1
melting point: 127 to 129 °C

compound: O=C(OC1CCCCC1)C(c1ccccc1)n1cnc2[nH]ncc2c1=O (stereo not drawn)
melting point: 176 to 180 °C

compound: Cc1nnc(C(O)CCCCCCOc2ccccc2)o1 (stereo not drawn)
melting point: 50 to 52 °C

----------
Reported melting point values follow for various compounds
experimental-readout: melting point

compound: O=C(O)c1ccc(C#Cc2ccccc2)cc1OCc1ccccc1
result: 125 to 127 °C
//
compound: Oc1ccc2cc(Cc3c(Cc4ccccc4)sc4ccccc34)ccc2c1Br
result: 110 to 112 °C
//
compound: O=C1OCc2c1oc1cccc(F)c1c2=O
result: 224 to 226 °C
//
compound: CCc1nc(C(C)(C)O)c(C(=O)OCc2oc(=O)oc2C)n1Cc1ccc(-c2ccccc2-c2nnnn2C(c2ccccc2)(c2ccccc2)c2ccccc2)cc1
result: 145 °C
//
compound: O=C(O)COc1c(-c2cccc(Cl)c2)cc(C(=O)NCCCCCCCCn2ccc3cc(F)ccc32)cc1-c1cccc(Cl)c1
result: 141 to 144 °C
//
compound: CN1C(=O)C2(COc3cc4c(cc32)OCCO4)c2c1cccc2-n1ccccc1=O (stereo unspecified)
result: 212 to 214 °C
//
compound: C=CCC(C(=O)OC)C(=O)c1cccnc1 (stereo unspecified)
result: 112 to 113 °C
//
compound: CC(C)c1ccc(NC(=O)C2CCCc3ccccc32)cc1 (stereo unspecified)
result: 163 °C
//
compound: Cc1nn(-c2ccncc2)c2nc3cc(F)c(F)cc3c(Cl)c12
result: 226 to 228 °C
//
compound: COC(=O)C(=C(/C)c1cc(OC)cc(OC)c1)/C(=C\c1ccccc1)C(=O)NN1CCN(C)CC1
result: 117 to 121 °C
//
compound: COC(=O)c1cnc(OCc2ccccn2)nc1NCc1ccc(OC)c(Cl)c1
result: 135 to 136 °C
//
compound: CC(C)=CCn1c(=O)c(C2=Nc3ccccc3S(=O)(=O)N2)c(O)c2ccccc21
result: 249 to 251 °C
//
compound: N#Cc1ccc2cc3c4c(cccc4c2c1)C(=O)OC3=O
result: > 320 °C
//
compound: CCO[C@H](C(=O)N1C(=O)OC[C@@H]1Cc1ccccc1)[C@H](O)c1ccc2oc(Cc3nc(-c4ccccc4)oc3C)cc2c1
result: 66 °C
//
compound: COc1ccc(CN(CC(=O)OC(C)(C)C)S(=O)(=O)c2ccc3c(Cl)cnc(Cl)c3c2)cc1
result: 117 to 118 °C
//
compound: CCC1=C([N+](=O)[O-])C(c2cccc(Cl)c2Cl)c2c[nH]nc2N1 (stereo unspecified)
result: 250 °C

----------
molecule: CC(C)c1ncc2cc(Cl)nc(Cl)n12
melting point: 90 to 93 °C

molecule: O=C(/C=C/c1ccn(S(=O)(=O)c2ccc(CN3CCOCC3)cc2)c1)NO
melting point: 168 to 170 °C

molecule: OC1(C=Cc2ccc(-c3cccnc3)cc2)CN2CCC1CC2 (stereo not given)
melting point: 195 to 198 °C

molecule: c1ccc(-c2cc(-c3c[nH]nc3-c3ccccn3)ccn2)cc1
melting point: 148 °C

molecule: O=C1NC(C(=O)NCCO[N+](=O)[O-])C(c2cccs2)O1 (stereo not given)
melting point: 101 to 103 °C

molecule: N#CC(c1ccc(O)cc1)c1c(Cl)cc(-n2ncc(=O)[nH]c2=O)cc1Cl (stereo not given)
melting point: 210 °C

molecule: COc1ccc(N2CCN(c3c(C)c(C)c4c(c3C)C(C(C)(C)C)C(C)(C)O4)CC2)cc1 (stereo not given)
melting point: 144 to 146 °C

molecule: CCC(Oc1cccc(C(F)(F)F)c1)C(=O)OC1CC(O)C=C2C=CC(C)C(CCC3CC(O)CC(=O)O3)C21 (mixture of isomers)
melting point: 135 to 137 °C

molecule: OCC12CO[C@@H](c3ccc(C(F)(F)F)cc3)N1[C@H](c1ccc(C(F)(F)F)cc1)OC2
melting point: 120 °C

molecule: O=C(O)c1ccc2nc3c4nc5cc(C(=O)O)ccc5nc4c4nc5cc(C(=O)O)ccc5nc4c3nc2c1
melting point: > 390 °C

molecule: CCN1C(=O)C(C)(C)C(=O)N(C)c2cc(CN(CCn3ccc4sccc4c3=O)Cc3cccnc3C)ccc21
melting point: 139 to 140 °C

molecule: CC(C)(C)NS(=O)(=O)c1ccccc1
melting point: 77 to 78 °C

molecule: N#Cc1ccc(N2C[C@H](O)C[C@@H]2CO)c2ccccc12
melting point: 146 to 147 °C

molecule: Nc1ncc(-c2ccccc2)nc1Sc1ccccc1
melting point: 109 to 112 °C

molecule: CC(=O)Nc1ccc(Nc2ncnc3[nH]cc(C(=O)c4ccccc4)c23)cc1
melting point: 263 to 264 °C
